- Test system: HT-29
- TEST_SUMMARY: Cytotoxicity against human HT-29 cells after 48 hrs by MTT assay
- Type: functional, cell-based
- PROTOCOL_CONDITIONS: HT-29, 48 h
This listing pairs compounds with measured pIC50.
Reminder that pIC50 means the negative base-10 logarithm of the concentration expressed in mol/L.

Below are worked cases with known answers.
>>> meas_value("COc1cc([C@@H]2c3cc4c(cc3[C@H](O)[C@H]3COC(=O)[C@H]23)OCO4)cc(OC)c1OC")
5.52
>>> meas_value("COc1cccc2c1C(=O)c1c(O)c3c(c(O)c1C2=O)C[C@@](O)(C(=O)CO)C[C@@H]3O[C@H]1C[C@H](N)[C@H](O)[C@H](C)O1")
5.85
>>> meas_value("COc1cc([C@@H]2c3cc4c(cc3[C@@H](NC(=O)c3cc5c([nH]c6ccccc65)c(-c5cccnc5)n3)[C@H]3COC(=O)[C@H]23)OCO4)cc(OC)c1OC")
5.20
>>> meas_value("COc1cc([C@@H]2c3cc4c(cc3[C@@H](NC(=O)c3cc5c([nH]c6ccccc65)c(-c5cccc(Oc6ccccc6)c5)n3)[C@H]3COC(=O)[C@H]23)OCO4)cc(OC)c1OC")
4.99
>>> meas_value("COc1ccc(-c2nc(C(=O)N[C@@H]3c4cc5c(cc4[C@@H](c4cc(OC)c(OC)c(OC)c4)[C@H]4C(=O)OC[C@@H]43)OCO5)cc3c2[nH]c2ccccc23)cc1")
4.45

We now examine a further compound.
// query Given COc1cc(-c2nc(C(=O)N[C@@H]3c4cc5c(cc4[C@@H](c4cc(OC)c(OC)c(OC)c4)[C@H]4C(=O)OC[C@@H]43)OCO5)cc3c2[nH]c2ccccc23)cc(OC)c1OC , report its pIC50 on HT-29.
// result 4.06
